- System: IL-2 secretion by human effector memory T cells (TEM)
- test.name: Effector memory T cells IL-2 release assay
- Type: cell-based
- condition.info: T-cell; human CD4+ effector memory T cells, CD3/CD28 bead stimulation, 24 h; read-out: CD4TC IL2 IC50
outcome.measure: IC50 (nM)
A number alone suffices; assume nM.

Examples with answers:
>>> data_value("CN(C(=O)C1CN(C(=O)[C@@H]2CCO2)C1)[C@@H](c1ccc(N2CCCc3c2cnc2cc(Cl)nn32)cc1)C(F)(F)F (relative stereo) [CPD0073563]")
269
>>> data_value("CN(C(=O)C1CCCOC1)[C@@H](c1ccc(N2CCCc3c2cnc2cc(Cl)nn32)cc1)C(F)(F)F (stereo partly drawn) [CPD0021572]")
193
>>> data_value("CC(=O)N1CCC(C(=O)N(C)[C@@H](c2ccc(N3CC[C@H](C)c4c3cnc3cc(Cl)nn43)cc2)C(F)(F)F)CC1 (relative stereo) [CPD0074566]")
58
>>> data_value("CN(C(=O)[C@H]1CC[S@](=N)(=O)CC1)[C@@H](c1ccc(N2CCC3(CC3)c3c2cnc2cc(F)nn32)cc1)C(F)(F)F (relative stereo) [CPD0072853]")
62
>>> data_value("COc1ccc2ncc(Nc3ccc([C@H](N(C)C(=O)C4CCS(=O)(=O)CC4)C(F)(F)F)cc3)c(C3(OC)COC3)c2n1 [CPD0076414]")
267

In the following, a different molecule is considered.
Which IC50 value is on record for CN(C(=O)c1nn(C)cc1Cl)[C@@H](c1ccc(N2CCCc3c2cnc2cc(Cl)nn32)cc1)C(F)(F)F [CPD0019352] ? 417

====

- System: IL-2 secretion by human effector memory T cells (TEM)
- test.name: Effector memory T cells IL-2 release assay
- Assay type: cell-based
- condition.info: T-cell; human CD4+ effector memory T cells, CD3/CD28 bead stimulation, 24 h; read-out: CD4TC IL2 IC50
The molecules listed here are annotated with their IC50.
# include the unit after the value

>>> data_value("CN(C(=O)C1CC2(C1)CS(=O)(=O)C2)[C@@H](c1ccc(N2CCCc3c2cnc2cc(Cl)nn32)cc1)C(F)(F)F [CPD0072937]")
"93 nM"
>>> data_value("CN(C(=O)[C@@H]1CNC(=O)C1)[C@@H](c1ccc(N2CCCc3c2cnc2cc(Cl)nn32)cc1)C(F)(F)F (stereo in doubt) [CPD0073565]")
"101 nM"

Next molecule, please.
Fill in: IC50 of CN(C(=O)c1cncn1C)[C@@H](c1ccc(N2CCCc3c2cnc2cc(Cl)nn32)cc1)C(F)(F)F [CPD0019344] is ___ 295 nM

====

- System: IL-2 secretion by human effector memory T cells (TEM)
- test.name: Effector memory T cells IL-2 release assay
- Format: cell-based
- condition.info: T-cell; human CD4+ effector memory T cells, CD3/CD28 bead stimulation, 24 h; read-out: CD4TC IL2 IC50
pIC50: −log10 of the molar value.
Assign Criterion met whenever pIC50 does not fall below 7; assign Criterion not met whenever it does.

>>> cat("CN(C(=O)C1CN(C(=O)[C@H]2CCO2)C1)[C@@H](c1ccc(N2CCCc3c2cnc2cc(Cl)nn32)cc1)C(F)(F)F (relative stereo)")
"Criterion not met"
>>> cat("COc1ccc2ncc(Nc3ccc([C@H](N(C)C(=O)[C@@H]4CNC(=O)C4)C(F)(F)F)cc3)c([C@H](C)OC)c2n1 (relative stereo)")
"Criterion met"
>>> cat("CN(C(=O)N1CCS(=O)(=O)CC1)[C@@H](c1ccc(N2CCCc3c2cnc2cc(Cl)nn32)cc1)C(F)(F)F")
"Criterion not met"

Could you please find out whether CN(C(=O)C1CCS(=N)(=O)CC1)[C@@H](c1ccc(N2CC3(CC3)Cc3c2cnc2cc(Cl)nn32)cc1)C(F)(F)F (stereo partly drawn) has pIC50 that meets 7 or exceeds it? Criterion not met

Does pIC50 meet or surpass 7 for Cc1cc(N2CCCc3c2cnc2cc(Cl)nn32)ccc1[C@H](N(C)C(=O)C1CCS(=O)(=O)CC1)C(F)(F)F ? Criterion not met

Please tell me: is the compound CN(C(=O)[C@H]1CNC(=O)O1)[C@@H](c1ccc(N2CCCc3c2cnc2cc(Cl)nn32)cc1)C(F)(F)F (single isomer, unassigned) at or over 7 in terms of pIC50? Criterion met

Is it the case that CN1C[C@H](C(=O)N(C)[C@@H](c2ccc(N3CCCc4c3cnc3cc(Cl)nn43)cc2)C(F)(F)F)CC1=O (relative stereo) has pIC50 reaching or exceeding 7? Criterion not met

Could you please find out whether COc1ccc2ncc(Nc3ccc([C@H](N(C)C(=O)C4CCS(=O)(=O)CC4)C(F)(F)F)cc3)c([C@@H]3CCOC3)c2n1 has pIC50 that meets 7 or exceeds it? Criterion met
